As shown below, each of these molecules has a reported mass density value.
- assayText: xn = mol fraction of the nth substance listed
- conditions: 318.15 K; 101 kPa; Liquid; x1 = 0.8
Entry rule: numbers only, all in kg/m3.

Sample records with mass density:
- CCOC(=O)Cc1ccccc1 [ethyl phenylacetate] + CCO: 987.98
- CCCCCC(=O)OCC [ethyl hexanoate] + CCO: 840.08
- CCCCCCCC(=O)OCC [ethyl octanoate] + CCO: 838.81

Consider the molecule CCOC(=O)c1ccccc1 [ethyl benzoate] + CCO and give its measured mass density.
999.19

Next record, please: CCCC(=O)OCCC(C)C [3-methylbutyl butanoate] + CCO
834.28
